# Experiment notes: Bioavailability after oral dose of 0.3 mg/kg
# Format: ADME, organism-based
# Condition description: eutheria, in vivo
Quantity name: bioavailability (%)
Answers are plain numbers, in %.

Entry under test: CCCN(Cc1ccc(-c2ccccc2-c2nnn[nH]2)cc1)c1ncccc1C(=O)O . Its bioavailability was 97.2

====

# Experiment notes: Tmax value after oral dose of 10 mg/kg
# Assay type: ADME, organism-based
# Set-up: dose 10 mg/kg, route oral
# Condition description: in vivo
Quantity name: Tmax (min)
Numbers only, in min.

GET /value?item= CCCCN(Cc1ccc(-c2ccccc2-c2nn[nH]n2)cc1)c1ncncc1C(=O)O.Cl &field=Tmax returns 54
